System: strain DSM 21069 (isolate MP28-13)
Experiment: Antibiotic resistance characteristics of strain DSM 21069
Assay type: cell-based, Streptomyces
Settings: antibiotic at 50 μg/ml

compound	Antibiotic resistance
C=C(NC(=O)C(=C)NC(=O)c1csc(C2=N[C@@H]3c4csc(n4)[C@H]4NC(=O)c5csc(n5)[C@H]([C@](C)(O)[C@@H](C)O)NC(=O)[C@H]5CSC(=N5)/C(=C/C)NC(=O)[C@H]([C@@H](C)O)NC(=O)c5csc(n5)[C@]3(CC2)NC(=O)[C@H](C)NC(=O)C(=C)NC(=O)[C@H](C)NC(=O)[C@H]([C@@H](C)CC)N[C@@H]2C=Cc3c([C@H](C)O)cc(nc3[C@H]2O)C(=O)O[C@@H]4C)n1)C(N)=O [Thiostrepton]	sensitive
CO[C@H]1/C=C/O[C@@]2(C)Oc3c(C)c(O)c4c(O)c(cc(O)c4c3C2=O)NC(=O)/C(C)=C\C=C\[C@H](C)[C@H](O)[C@@H](C)[C@@H](O)[C@@H](C)[C@H](OC(C)=O)[C@@H]1C [Rifamycin]	sensitive
CN[C@@H]1[C@@H](O[C@H]2O[C@H](CO)[C@@H](N)[C@H](O)[C@H]2O)OC2C[C@@H](N)[C@@H](O[C@H]3[C@H](O)[C@@H](O)[C@H](N)C[C@@H]3N)OC2[C@@H]1O (stereo partly shown) [Apramycin]	sensitive

====

Tested on: strain DSM 21069 (isolate MP28-13)
Experiment: Antibiotic resistance characteristics of strain DSM 21069
Type: cell-based, Streptomyces
Conditions: antibiotic at 5 μg/ml

compound	Antibiotic resistance
C=C(NC(=O)C(=C)NC(=O)c1csc(C2=N[C@@H]3c4csc(n4)[C@H]4NC(=O)c5csc(n5)[C@H]([C@](C)(O)[C@@H](C)O)NC(=O)[C@H]5CSC(=N5)/C(=C/C)NC(=O)[C@H]([C@@H](C)O)NC(=O)c5csc(n5)[C@]3(CC2)NC(=O)[C@H](C)NC(=O)C(=C)NC(=O)[C@H](C)NC(=O)[C@H]([C@@H](C)CC)N[C@@H]2C=Cc3c([C@H](C)O)cc(nc3[C@H]2O)C(=O)O[C@@H]4C)n1)C(N)=O	sensitive
CO[C@H]1/C=C/O[C@@]2(C)Oc3c(C)c(O)c4c(O)c(cc(O)c4c3C2=O)NC(=O)/C(C)=C\C=C\[C@H](C)[C@H](O)[C@@H](C)[C@@H](O)[C@@H](C)[C@H](OC(C)=O)[C@@H]1C	resistant
CN[C@@H]1[C@@H](O[C@H]2O[C@H](CO)[C@@H](N)[C@H](O)[C@H]2O)OC2C[C@@H](N)[C@@H](O[C@H]3[C@H](O)[C@@H](O)[C@H](N)C[C@@H]3N)OC2[C@@H]1O (stereo partly shown)	sensitive
[H]/N=C(/N)N[C@H]1[C@H](O)[C@@H](O)[C@H](O[C@@H]2O[C@@H](C)[C@](O)(C=O)[C@H]2O[C@@H]2O[C@@H](CO)[C@H](O)[C@@H](O)[C@@H]2NC)[C@@H](N/C(N)=N\[H])[C@@H]1O	resistant
